Target: UniProt O95622
Sequence (O95622 whole entry): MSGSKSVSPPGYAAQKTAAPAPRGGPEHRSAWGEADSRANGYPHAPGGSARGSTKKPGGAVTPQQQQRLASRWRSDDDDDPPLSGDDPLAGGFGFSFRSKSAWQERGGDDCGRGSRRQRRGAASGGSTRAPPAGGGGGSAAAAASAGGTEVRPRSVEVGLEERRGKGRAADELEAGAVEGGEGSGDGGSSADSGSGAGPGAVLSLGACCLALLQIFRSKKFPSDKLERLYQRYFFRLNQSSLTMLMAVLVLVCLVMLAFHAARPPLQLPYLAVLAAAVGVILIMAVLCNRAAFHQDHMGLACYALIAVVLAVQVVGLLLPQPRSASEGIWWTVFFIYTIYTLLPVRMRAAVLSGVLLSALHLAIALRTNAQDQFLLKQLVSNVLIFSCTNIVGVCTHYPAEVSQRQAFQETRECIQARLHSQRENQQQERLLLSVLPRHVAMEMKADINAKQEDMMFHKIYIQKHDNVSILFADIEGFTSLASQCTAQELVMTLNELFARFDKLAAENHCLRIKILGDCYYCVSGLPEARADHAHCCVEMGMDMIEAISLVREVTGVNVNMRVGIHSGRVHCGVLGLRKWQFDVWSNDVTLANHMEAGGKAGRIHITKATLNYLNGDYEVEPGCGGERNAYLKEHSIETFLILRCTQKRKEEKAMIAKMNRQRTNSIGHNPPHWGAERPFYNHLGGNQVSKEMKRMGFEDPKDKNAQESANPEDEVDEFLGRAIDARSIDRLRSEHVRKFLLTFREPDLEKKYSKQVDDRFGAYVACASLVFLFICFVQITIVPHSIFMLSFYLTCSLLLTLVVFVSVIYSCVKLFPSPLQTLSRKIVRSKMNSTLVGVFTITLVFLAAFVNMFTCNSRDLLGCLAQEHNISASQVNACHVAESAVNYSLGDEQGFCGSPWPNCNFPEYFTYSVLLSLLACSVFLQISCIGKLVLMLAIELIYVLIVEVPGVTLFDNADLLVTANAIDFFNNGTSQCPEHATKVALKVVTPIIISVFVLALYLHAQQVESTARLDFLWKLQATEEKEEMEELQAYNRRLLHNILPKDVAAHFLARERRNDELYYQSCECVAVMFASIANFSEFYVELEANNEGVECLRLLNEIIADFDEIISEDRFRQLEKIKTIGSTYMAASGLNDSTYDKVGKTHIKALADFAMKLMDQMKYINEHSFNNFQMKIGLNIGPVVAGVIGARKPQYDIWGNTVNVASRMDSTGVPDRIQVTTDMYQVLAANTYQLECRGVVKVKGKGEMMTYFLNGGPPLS
Assay: Inhibition of recombinant human adenylate cyclase 5 expressed in HEK293 cells
Metric name: IC50

The examples below pair each entry with its known result.
Nc1ncnc2c1ncn2CCCCCCC(=O)NO | > 200 µM
COC(=O)CN(CCn1cnc2c(N)ncnc21)C(=O)OC(C)(C)C | > 200 µM
Nc1ncnc2c1ncn2CCCC(=O)NO | 7.9 µM
Nc1ncnc2c1ncn2CCCCCC(=O)O | > 200 µM
Nc1ncnc2c1ncn2CCC(=O)NO | > 200 µM

In: Record request: IC50 value, item `COC(=O)CNCCCn1cnc2c(N)ncnc21`
Out: > 200 µM

In: Record request: IC50 value, item `CC(C)(C)OC(=O)N(CCCn1cnc2c(N)ncnc21)CC(=O)O`
Out: > 200 µM

Each recorded value in this set is attributed to ChEMBL document CHEMBL1135849.
